Data provenance: PubChem BioAssay AID1963842

Test system: 677734-321-R-J1-PDC complex spheroid viability
Experiment: Anticancer human tumor 677734-321-R-J1-PDC patient-derived soft tissue sarcoma cell line growth inhibition [POLQ]
Conditions: second compound 0.1 µM; first compound 0.00316 µM; active compounds read low
Readout Name: viability, T/C (%)
Give bare numbers, in %.

For each of the compounds below, state viability, T/C.
1. Cn1ncnc1[C@H]1c2n[nH]c(=O)c3cc(F)cc(c23)N[C@@H]1c1ccc(F)cc1 + COC1C(OC(N)=O)C(O)C(Oc2ccc3c(O)c(NC(=O)c4ccc(O)c(CC=C(C)C)c4)c(=O)oc3c2C)OC1(C)C
2. C=CCn1c(=O)c2cnc(Nc3ccc(N4CCN(C)CC4)cc3)nc2n1-c1cccc(C(C)(C)O)n1 + COC1C(OC(N)=O)C(O)C(Oc2ccc3c(O)c(NC(=O)c4ccc(O)c(CC=C(C)C)c4)c(=O)oc3c2C)OC1(C)C
3. CC[C@@]1(O)C(=O)OCc2c1cc1n(c2=O)Cc2cc3c(CN(C)C)c(O)ccc3nc2-1 + Cc1cccc(N(C)C(=O)C2C(O)CCN2c2nc(C)cc(C(F)(F)F)c2C#N)c1

Result:
1. 106
2. 105
3. 108

---

I'd appreciate it if you could supply viability, T/C values for the items below.
Tested on: 677734-321-R-J1-PDC complex spheroid viability
Experiment: Anticancer human tumor 677734-321-R-J1-PDC cell line growth inhibition [POLQ]
Conditions: second compound 1 µM; first compound 0.00316 µM; active compounds read low

For orientation, consider the following solved cases.
{"Compound": "Cn1ncnc1[C@H]1c2n[nH]c(=O)c3cc(F)cc(c23)N[C@@H]1c1ccc(F)cc1 + Cc1cccc(N(C)C(=O)C2C(O)CCN2c2nc(C)cc(C(F)(F)F)c2C#N)c1", "Measured": "96.9%"}
{"Compound": "C=CCn1c(=O)c2cnc(Nc3ccc(N4CCN(C)CC4)cc3)nc2n1-c1cccc(C(C)(C)O)n1 + COC1C(OC(N)=O)C(O)C(Oc2ccc3c(O)c(NC(=O)c4ccc(O)c(CC=C(C)C)c4)c(=O)oc3c2C)OC1(C)C", "Measured": "108%"}
{"Compound": "Cn1ncnc1[C@H]1c2n[nH]c(=O)c3cc(F)cc(c23)N[C@@H]1c1ccc(F)cc1 + Nc1ccc(C#CCN(C(=O)Cc2ncc(C(F)(F)F)cc2C(F)(F)F)c2ccc(F)cc2)nn1", "Measured": "93.3%"}

For each of the compounds below, state viability, T/C.
1. COc1cccc(OCCCN)c1-c1cc(Nc2cnc(C#N)cn2)n[nH]1 + Nc1ccc(C#CCN(C(=O)Cc2ncc(C(F)(F)F)cc2C(F)(F)F)c2ccc(F)cc2)nn1
2. CCc1c2c(nc3ccc(O)cc13)-c1cc3c(c(=O)n1C2)COC(=O)[C@]3(O)CC + COC1C(OC(N)=O)C(O)C(Oc2ccc3c(O)c(NC(=O)c4ccc(O)c(CC=C(C)C)c4)c(=O)oc3c2C)OC1(C)C
3. CCc1c2c(nc3ccc(O)cc13)-c1cc3c(c(=O)n1C2)COC(=O)[C@]3(O)CC + Nc1ccc(C#CCN(C(=O)Cc2ncc(C(F)(F)F)cc2C(F)(F)F)c2ccc(F)cc2)nn1
4. COc1cccc(OCCCN)c1-c1cc(Nc2cnc(C#N)cn2)n[nH]1 + Cc1cccc(N(C)C(=O)C2C(O)CCN2c2nc(C)cc(C(F)(F)F)c2C#N)c1
5. Cn1ncnc1[C@H]1c2n[nH]c(=O)c3cc(F)cc(c23)N[C@@H]1c1ccc(F)cc1 + COC1C(OC(N)=O)C(O)C(Oc2ccc3c(O)c(NC(=O)c4ccc(O)c(CC=C(C)C)c4)c(=O)oc3c2C)OC1(C)C

Result:
1: 83.6%; 2: 30.1%; 3: 22.5%; 4: 53.9%; 5: 103%

---

I'd appreciate it if you could supply viability, T/C values for the items below.
Tested on: 677734-321-R-J1-PDC complex spheroid viability
Test: Anticancer human tumor 677734-321-R-J1-PDC cell line growth inhibition [POLQ];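 further: spheroids exposed to compounds for one week; 100% = vehicle DMSO treated spheroids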
Details: second compound 0.1 µM; first compound 0.00316 µM; active compounds read low
Give bare numbers, in %.

For orientation, consider the following solved cases.
{"Compound": "COc1cccc(OCCCN)c1-c1cc(Nc2cnc(C#N)cn2)n[nH]1 + Cc1cccc(N(C)C(=O)C2C(O)CCN2c2nc(C)cc(C(F)(F)F)c2C#N)c1", "Unit Of Measurement": "%", "viability, T/C": 89.8}
{"Compound": "CCc1c2c(nc3ccc(O)cc13)-c1cc3c(c(=O)n1C2)COC(=O)[C@]3(O)CC + COC1C(OC(N)=O)C(O)C(Oc2ccc3c(O)c(NC(=O)c4ccc(O)c(CC=C(C)C)c4)c(=O)oc3c2C)OC1(C)C", "Unit Of Measurement": "%", "viability, T/C": 30}

Request: # get_value(readout='viability, T/C', item= COc1cccc(OCCCN)c1-c1cc(Nc2cnc(C#N)cn2)n[nH]1 + COC1C(OC(N)=O)C(O)C(Oc2ccc3c(O)c(NC(=O)c4ccc(O)c(CC=C(C)C)c4)c(=O)oc3c2C)OC1(C)C )
Result: 92.5

---

I'd appreciate it if you could supply viability, T/C values for the items below.
Tested on: 677734-321-R-J1-PDC complex spheroid viability
Assay: Anticancer human tumor 677734-321-R-J1-PDC cell line growth inhibition [POLQ];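 further: spheroids exposed to compounds for one week; 100% = vehicle DMSO treated spheroids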
Details: second compound 1 µM; first compound 0.0316 µM; active compounds read low
One number for each entry, in %.

For each of the compounds below, state viability, T/C.
1. O=C(Nc1ccc(O)c(NS(=O)(=O)c2ccc(F)cc2)c1)c1ccc(-c2ccccc2)cc1 + Nc1ccc(C#CCN(C(=O)Cc2ncc(C(F)(F)F)cc2C(F)(F)F)c2ccc(F)cc2)nn1
2. CNCc1ccc(-c2[nH]c3cc(F)cc4c3c2CCNC4=O)cc1 + Nc1ccc(C#CCN(C(=O)Cc2ncc(C(F)(F)F)cc2C(F)(F)F)c2ccc(F)cc2)nn1
3. COc1cccc2c1C(=O)c1c(O)c3c(c(O)c1C2=O)CC(O)(C(=O)CO)CC3OC1CC(N)C(O)C(C)O1 (stereo not drawn) + Nc1ccc(C#CCN(C(=O)Cc2ncc(C(F)(F)F)cc2C(F)(F)F)c2ccc(F)cc2)nn1

Result:
1. 114
2. 118
3. 60

---

Tested on: 677734-321-R-J1-PDC complex spheroid viability
Assay: Anticancer human tumor 677734-321-R-J1-PDC cell line growth inhibition [POLQ];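 further: spheroids exposed to compounds for one week; 100% = vehicle DMSO treated spheroids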
Conditions: second compound 1 µM; first compound 0.1 µM; active compounds read low
Description: Multicellular complex tumor spheroid response to Polymerase (POL) inhibitors (novobiocin, ART-558, RP6685) in combination with a variety of drugs and investigational agents in selected tumor cell lines The POL inhibitors (novobiocin, ART-558, and RP6685) were evaluated both individually and in combination with standard of care and investigational anticancer small molecules within a complex spheroid model of solid tumors. . […]
I'd appreciate it if you could supply viability, T/C values for the items below.
Answers are plain numbers, in %.

For each of the molecules below, state viability, T/C.
1. O=C(Nc1ccc(O)c(NS(=O)(=O)c2ccc(F)cc2)c1)c1ccc(-c2ccccc2)cc1 + Cc1cccc(N(C)C(=O)C2C(O)CCN2c2nc(C)cc(C(F)(F)F)c2C#N)c1
2. Cn1ncnc1[C@H]1c2n[nH]c(=O)c3cc(F)cc(c23)N[C@@H]1c1ccc(F)cc1 + Nc1ccc(C#CCN(C(=O)Cc2ncc(C(F)(F)F)cc2C(F)(F)F)c2ccc(F)cc2)nn1
3. CC1COCCN1c1cc(C2(O)CC3CCC(C2)O3)c2cnn(-c3ccn[nH]3)c2n1 (stereo not given) + COC1C(OC(N)=O)C(O)C(Oc2ccc3c(O)c(NC(=O)c4ccc(O)c(CC=C(C)C)c4)c(=O)oc3c2C)OC1(C)C
4. CC1COCCN1c1cc(C2(S(C)(=N)=O)CC2)nc(-c2ccnc3[nH]ccc23)n1 (stereo not given) + Nc1ccc(C#CCN(C(=O)Cc2ncc(C(F)(F)F)cc2C(F)(F)F)c2ccc(F)cc2)nn1
5. CC(C)n1c(=O)n(C)c2cnc3cc(F)c(-c4ccc(OCCCN5CCCCC5)nc4)cc3c21 + Cc1cccc(N(C)C(=O)C2C(O)CCN2c2nc(C)cc(C(F)(F)F)c2C#N)c1

Result:
90.2
68.1
54.2
94.5
93.5

---

System: 677734-321-R-J1-PDC complex spheroid viability
Test: Anticancer human tumor 677734-321-R-J1-PDC cell line growth inhibition [POLQ];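 further: spheroids exposed to compounds for one week; 100% = vehicle DMSO treated spheroids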
Settings: second compound 0.0316 µM; first compound 0.1 µM; active compounds read low
I'd appreciate it if you could supply viability, T/C values for the items below.
One number for each entry, in %.

For orientation, consider the following solved cases.
{"Compound": "O=C(Nc1ccc(O)c(NS(=O)(=O)c2ccc(F)cc2)c1)c1ccc(-c2ccccc2)cc1 + Nc1ccc(C#CCN(C(=O)Cc2ncc(C(F)(F)F)cc2C(F)(F)F)c2ccc(F)cc2)nn1", "Unit Of Measurement": "%", "viability, T/C": 115}
{"Compound": "COc1cc2cc(C(=O)CCC(=O)O)sc2cc1OC + Nc1ccc(C#CCN(C(=O)Cc2ncc(C(F)(F)F)cc2C(F)(F)F)c2ccc(F)cc2)nn1", "Unit Of Measurement": "%", "viability, T/C": 105}
{"Compound": "C=CCn1c(=O)c2cnc(Nc3ccc(N4CCN(C)CC4)cc3)nc2n1-c1cccc(C(C)(C)O)n1 + Nc1ccc(C#CCN(C(=O)Cc2ncc(C(F)(F)F)cc2C(F)(F)F)c2ccc(F)cc2)nn1", "Unit Of Measurement": "%", "viability, T/C": 102}
{"Compound": "O=C(c1cc(Cc2n[nH]c(=O)c3ccccc23)ccc1F)N1CCN(C(=O)C2CC2)CC1 + Cc1cccc(N(C)C(=O)C2C(O)CCN2c2nc(C)cc(C(F)(F)F)c2C#N)c1", "Unit Of Measurement": "%", "viability, T/C": 95.2}
{"Compound": "COc1cc(C2c3cc4c(cc3C(OC3OC5COC(C)OC5C(O)C3O)C3COC(=O)C23)OCO4)cc(OC)c1O (stereo not given) + COC1C(OC(N)=O)C(O)C(Oc2ccc3c(O)c(NC(=O)c4ccc(O)c(CC=C(C)C)c4)c(=O)oc3c2C)OC1(C)C", "Unit Of Measurement": "%", "viability, T/C": 91.5}

For each of the compounds below, state viability, T/C.
1. CC(C)n1c(=O)n(C)c2cnc3cc(F)c(-c4ccc(OCCCN5CCCCC5)nc4)cc3c21 + COC1C(OC(N)=O)C(O)C(Oc2ccc3c(O)c(NC(=O)c4ccc(O)c(CC=C(C)C)c4)c(=O)oc3c2C)OC1(C)C
2. C=CCn1c(=O)c2cnc(Nc3ccc(N4CCN(C)CC4)cc3)nc2n1-c1cccc(C(C)(C)O)n1 + COC1C(OC(N)=O)C(O)C(Oc2ccc3c(O)c(NC(=O)c4ccc(O)c(CC=C(C)C)c4)c(=O)oc3c2C)OC1(C)C
3. COc1cc2cc(C(=O)CCC(=O)O)sc2cc1OC + COC1C(OC(N)=O)C(O)C(Oc2ccc3c(O)c(NC(=O)c4ccc(O)c(CC=C(C)C)c4)c(=O)oc3c2C)OC1(C)C
4. CCc1c2c(nc3ccc(O)cc13)-c1cc3c(c(=O)n1C2)COC(=O)[C@]3(O)CC + COC1C(OC(N)=O)C(O)C(Oc2ccc3c(O)c(NC(=O)c4ccc(O)c(CC=C(C)C)c4)c(=O)oc3c2C)OC1(C)C
5. CC(C)n1c(=O)n(C)c2cnc3cc(F)c(-c4ccc(OCCCN5CCCCC5)nc4)cc3c21 + Cc1cccc(N(C)C(=O)C2C(O)CCN2c2nc(C)cc(C(F)(F)F)c2C#N)c1
6. O=C(c1cc(Cc2n[nH]c(=O)c3ccccc23)ccc1F)N1CCN(C(=O)C2CC2)CC1 + COC1C(OC(N)=O)C(O)C(Oc2ccc3c(O)c(NC(=O)c4ccc(O)c(CC=C(C)C)c4)c(=O)oc3c2C)OC1(C)C
7. CCCS(=O)(=O)Nc1ccc(F)c(C(=O)c2c[nH]c3ncc(-c4ccc(Cl)cc4)cc23)c1F + Nc1ccc(C#CCN(C(=O)Cc2ncc(C(F)(F)F)cc2C(F)(F)F)c2ccc(F)cc2)nn1

Result:
1: 104; 2: 102; 3: 99.5; 4: 3.1; 5: 98.6; 6: 105; 7: 106

For each of the compounds below, state viability, T/C.
1. Cn1ncnc1[C@H]1c2n[nH]c(=O)c3cc(F)cc(c23)N[C@@H]1c1ccc(F)cc1 + Nc1ccc(C#CCN(C(=O)Cc2ncc(C(F)(F)F)cc2C(F)(F)F)c2ccc(F)cc2)nn1
2. C#Cc1c(F)ccc2cc(O)cc(-c3ncc4c(N5CC6CCC(C5)N6)nc(OCC56CCCN5CC(F)C6)nc4c3F)c12 (stereo not given) + COC1C(OC(N)=O)C(O)C(Oc2ccc3c(O)c(NC(=O)c4ccc(O)c(CC=C(C)C)c4)c(=O)oc3c2C)OC1(C)C
3. CC1COCCN1c1cc(-c2ccnn2C)c2ccnc(-c3ccn[nH]3)c2n1 (stereo not given) + Cc1cccc(N(C)C(=O)C2C(O)CCN2c2nc(C)cc(C(F)(F)F)c2C#N)c1
4. COc1ccc([C@@H](O)c2cc(-c3ncnc4cc(N5CCOCC5)ccc34)c(F)cc2Cl)nn1 + Cc1cccc(N(C)C(=O)C2C(O)CCN2c2nc(C)cc(C(F)(F)F)c2C#N)c1
5. COc1cccc(OCCCN)c1-c1cc(Nc2cnc(C#N)cn2)n[nH]1 + COC1C(OC(N)=O)C(O)C(Oc2ccc3c(O)c(NC(=O)c4ccc(O)c(CC=C(C)C)c4)c(=O)oc3c2C)OC1(C)C
6. CCc1c2c(nc3ccc(O)cc13)-c1cc3c(c(=O)n1C2)COC(=O)[C@]3(O)CC + Nc1ccc(C#CCN(C(=O)Cc2ncc(C(F)(F)F)cc2C(F)(F)F)c2ccc(F)cc2)nn1
7. CC[C@@]1(O)C(=O)OCc2c1cc1n(c2=O)Cc2cc3c(CN(C)C)c(O)ccc3nc2-1 + Cc1cccc(N(C)C(=O)C2C(O)CCN2c2nc(C)cc(C(F)(F)F)c2C#N)c1

Result:
1: 79.8; 2: 92.2; 3: 67.6; 4: 103; 5: 9.46; 6: 4.82; 7: 15.8

Request: # get_value(readout='viability, T/C', item= CC1COCCN1c1cc(C2(O)CC3CCC(C2)O3)c2cnn(-c3ccn[nH]3)c2n1 (stereo not given) + COC1C(OC(N)=O)C(O)C(Oc2ccc3c(O)c(NC(=O)c4ccc(O)c(CC=C(C)C)c4)c(=O)oc3c2C)OC1(C)C )
Result: 58.1
